targetSystem: Intermediate conductance calcium-activated potassium channel protein 4 (Homo sapiens)
Sequence (O15554 whole entry): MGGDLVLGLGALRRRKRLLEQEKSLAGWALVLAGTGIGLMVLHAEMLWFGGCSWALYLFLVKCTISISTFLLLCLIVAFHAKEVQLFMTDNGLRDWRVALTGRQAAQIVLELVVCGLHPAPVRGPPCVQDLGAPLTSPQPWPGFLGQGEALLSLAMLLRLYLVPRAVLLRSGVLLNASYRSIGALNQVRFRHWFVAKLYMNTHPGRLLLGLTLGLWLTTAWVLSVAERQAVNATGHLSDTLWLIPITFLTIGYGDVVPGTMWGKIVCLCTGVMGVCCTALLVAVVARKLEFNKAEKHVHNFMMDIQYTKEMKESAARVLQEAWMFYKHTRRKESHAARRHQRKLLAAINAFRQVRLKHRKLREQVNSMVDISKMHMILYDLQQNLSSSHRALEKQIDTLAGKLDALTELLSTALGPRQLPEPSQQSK
experimentDescription: Inhibition of Gardos channel in human RBC assessed as inhibition of ionomycin-stimulated [86Rb] efflux
# key: entry, value: IC50
Provide the reading as a plain figure in nM.

c1ccc(C(C2=NCCO2)(c2ccccc2)c2ccccc2)cc1 : 4300
CNC(=O)C(c1ccccc1)(c1ccccc1)c1ccccc1 : 550
NC(=O)C(c1ccccc1)(c1ccccc1)c1ccc(F)cc1 : 40
NC(=O)C(c1ccc(F)cc1)(c1ccc(F)cc1)c1cccc(F)c1 : 17
NC(=O)C(c1cccc(F)c1)(c1cccc(F)c1)c1cccc(F)c1 : 13
NC(=O)C(c1ccc(F)cc1)(c1ccc(F)cc1)c1ccc(F)cc1 : 14
NC(=O)C(c1ccccc1)(c1ccc(F)cc1)c1ccccc1F (stereo not given) : 9
COC(=O)C(c1ccccc1)(c1ccccc1)c1ccccc1 : 330

// below: IC50 requested for another compound
I looked up NC(=O)C(c1ccc(F)cc1)(c1ccccc1F)c1ccccc1F and its IC50 for Intermediate conductance calcium-activated potassium channel protein 4 (Homo sapiens) was 15

###

experimentDescription: Bioavailability in Sprague-Dawley rat at 1 mg/kg, iv or 10 mg/kg, po
Format: ADME, organism-based
experimentalParameters: in vivo
valueKind: bioavailability (%)
# value in %; strip the unit string

get_value(item= NC(=O)C(c1ccccc1)(c1ccc(F)cc1)c1ccc(F)cc1 [SENICAPOC] , readout=bioavailability) returns 51

###

experimentDescription: Half life in Sprague-Dawley rat at 1 mg/kg, iv or 10 mg/kg, po
Format: ADME, organism-based
experimentalParameters: in vivo
valueKind: half-life
# include the unit after the value

For NC(=O)C(c1ccccc1)(c1ccc(F)cc1)c1ccc(F)cc1 the compound record lists half-life as 1 h

Lab note: measured half-life of NC(=O)C(c1ccccc1)(c1ccc(F)cc1)c1ccccc1F (configuration not stated) was 2.5 h

###

targetSystem: hERG (KCNH2) (Homo sapiens, UniProt Q12809)
Sequence (Q12809 whole entry): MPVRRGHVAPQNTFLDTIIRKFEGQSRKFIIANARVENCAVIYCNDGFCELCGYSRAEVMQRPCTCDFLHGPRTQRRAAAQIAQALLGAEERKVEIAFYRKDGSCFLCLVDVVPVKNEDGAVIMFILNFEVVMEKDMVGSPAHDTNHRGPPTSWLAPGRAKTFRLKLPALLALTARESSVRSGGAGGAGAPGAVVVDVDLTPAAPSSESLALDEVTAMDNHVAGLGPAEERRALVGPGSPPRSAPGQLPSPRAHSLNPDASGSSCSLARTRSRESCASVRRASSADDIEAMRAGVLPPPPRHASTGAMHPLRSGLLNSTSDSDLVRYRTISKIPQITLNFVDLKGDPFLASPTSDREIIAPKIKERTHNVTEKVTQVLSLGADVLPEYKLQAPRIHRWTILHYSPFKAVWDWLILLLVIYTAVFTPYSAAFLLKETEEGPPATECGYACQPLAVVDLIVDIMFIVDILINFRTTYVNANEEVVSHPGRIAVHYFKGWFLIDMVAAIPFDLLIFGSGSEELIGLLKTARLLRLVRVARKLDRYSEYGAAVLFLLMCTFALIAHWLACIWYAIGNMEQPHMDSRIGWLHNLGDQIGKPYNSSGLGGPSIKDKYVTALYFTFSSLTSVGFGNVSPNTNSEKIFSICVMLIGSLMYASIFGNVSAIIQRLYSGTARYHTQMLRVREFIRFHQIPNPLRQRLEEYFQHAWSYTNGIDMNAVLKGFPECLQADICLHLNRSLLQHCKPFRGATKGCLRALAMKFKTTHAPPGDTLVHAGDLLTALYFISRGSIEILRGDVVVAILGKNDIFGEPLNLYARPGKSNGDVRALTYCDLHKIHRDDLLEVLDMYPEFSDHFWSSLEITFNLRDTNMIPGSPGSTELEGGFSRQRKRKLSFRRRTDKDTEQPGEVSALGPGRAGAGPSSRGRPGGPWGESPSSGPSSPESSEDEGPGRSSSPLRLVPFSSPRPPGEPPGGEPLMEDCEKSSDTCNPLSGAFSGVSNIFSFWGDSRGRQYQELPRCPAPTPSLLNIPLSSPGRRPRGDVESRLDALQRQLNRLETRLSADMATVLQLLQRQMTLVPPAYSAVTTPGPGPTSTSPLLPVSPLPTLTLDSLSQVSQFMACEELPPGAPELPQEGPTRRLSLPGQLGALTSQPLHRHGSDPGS
experimentDescription: Inhibition of human ERG at 10 uM
valueKind: inhibition at 10 µM

Lab note: CNC(=O)C(c1ccccc1)(c1ccccc1)c1ccccc1 gave inhibition at 10 µM of < 20%

###

Recorded inhibition at 10 µM by entry
targetSystem: CYP3A4 (Homo sapiens)
Sequence (P08684 whole entry): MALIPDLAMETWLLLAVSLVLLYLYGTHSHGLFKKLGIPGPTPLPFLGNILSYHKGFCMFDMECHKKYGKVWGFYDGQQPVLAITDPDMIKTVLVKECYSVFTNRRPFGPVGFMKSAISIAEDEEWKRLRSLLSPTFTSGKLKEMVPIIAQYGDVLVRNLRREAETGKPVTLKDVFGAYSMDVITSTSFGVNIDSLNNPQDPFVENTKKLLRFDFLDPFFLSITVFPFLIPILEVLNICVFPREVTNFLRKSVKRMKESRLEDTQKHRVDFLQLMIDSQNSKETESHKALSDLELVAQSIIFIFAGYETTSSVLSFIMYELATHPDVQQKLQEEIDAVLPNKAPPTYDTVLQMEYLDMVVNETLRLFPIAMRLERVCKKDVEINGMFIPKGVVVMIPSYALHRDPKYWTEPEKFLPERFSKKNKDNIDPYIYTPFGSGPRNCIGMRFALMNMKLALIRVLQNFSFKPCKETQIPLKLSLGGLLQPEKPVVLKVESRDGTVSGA
experimentDescription: Inhibition of CYP3A4 at 10 uM
Assay type: ADME

Worked examples follow.
NC(=O)C(c1ccccc1)(c1ccc(F)cc1)c1ccc(F)cc1 [SENICAPOC] : < 20%
CNC(=O)C(c1ccccc1)(c1ccccc1)c1ccccc1 : < 20%

Now for a further compound.
Record NC(=O)C(c1ccccc1)(c1ccc(F)cc1)c1ccccc1F (stereo not drawn) ; system CYP3A4 (Homo sapiens); inhibition at 10 µM = < 20%

###

System: Liver
experimentDescription: Intrinsic clearance in rat liver microsome S9 fraction as % compound remaining after incubation
Type: ADME, subcellular
valueKind: Compound remaining (%)
Kindly answer with a numeric value in %, unit omitted.

Sample answers from the record:
NC(=O)C(c1ccccc1)(c1ccccc1)c1ccc(F)cc1 : 58
NC(=O)C(c1ccc(F)cc1)(c1ccc(F)cc1)c1ccc(F)cc1 : 25
NC(=O)C(c1cccc(F)c1)(c1cccc(F)c1)c1cccc(F)c1 : 36
NC(=O)C(c1ccccc1)(c1ccccc1)c1ccc(F)cc1F : 44

Readout Compound remaining for NC(=O)C(c1ccccc1)(c1ccccc1)c1ccccc1F , test system Liver, was 61

For the compound NC(=O)C(c1ccccc1)(c1ccccc1)c1ccc(F)c(F)c1 , the measured Compound remaining on Liver was 63

Measured Compound remaining for this entry NC(=O)C(c1ccccc1)(c1cccc(F)c1)c1cccc(F)c1 on Liver: 43

// Compound remaining (Liver) for NC(=O)C(c1ccccc1)(c1ccc(F)cc1)c1ccc(F)cc1 [SENICAPOC] = 51

Test item NC(=O)C(c1ccc(F)cc1)(c1ccc(F)cc1)c1ccccc1F ; Liver; reported Compound remaining was 62

The observed Compound remaining for NC(=O)C(c1ccc(F)cc1)(c1ccc(F)cc1)c1cccc(F)c1 when tested with Liver stands at 19

Record for NC(=O)C(c1ccccc1)(c1ccccc1F)c1ccccc1F under target or system Liver: Compound remaining reported as 48

# lookup: NC(=O)C(c1ccc(F)cc1)(c1ccccc1F)c1ccccc1F on Liver, Compound remaining = 46

Item NC(=O)C(c1ccccc1)(c1ccc(F)cc1)c1ccccc1F (stereo not drawn) ; assay system Liver; Compound remaining reported as 40
